Molecular target: T1, NDP52-FL (Human, UniProt Q13137 1-446)
T1 sequence: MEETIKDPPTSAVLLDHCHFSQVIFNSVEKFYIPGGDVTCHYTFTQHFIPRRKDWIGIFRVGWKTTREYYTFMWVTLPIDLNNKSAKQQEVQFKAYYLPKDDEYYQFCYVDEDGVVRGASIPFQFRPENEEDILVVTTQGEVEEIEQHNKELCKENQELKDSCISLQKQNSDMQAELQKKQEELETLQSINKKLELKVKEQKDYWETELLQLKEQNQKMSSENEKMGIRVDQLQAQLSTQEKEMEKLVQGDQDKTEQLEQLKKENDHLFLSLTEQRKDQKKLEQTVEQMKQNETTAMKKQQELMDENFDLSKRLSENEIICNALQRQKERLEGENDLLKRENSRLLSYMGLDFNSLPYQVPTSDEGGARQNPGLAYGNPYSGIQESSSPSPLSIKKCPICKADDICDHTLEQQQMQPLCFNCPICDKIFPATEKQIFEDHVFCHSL
Test: fluorescence titration; Fluorescence: 100 nM DNA, 50 mM Tris-HCl pH 7.5, 150 mM NaCl, 1 mM DTT; EMSA: 50 mM Tris-HCl pH 7.5, 50 mM NaCl, 3 mM MgCl2, 5 min; temperature not stated
Details: protein: recombinant; tags: His-tag (pET151); chain copies: 2; label: 3' FAM (called FITC in Methods) on strand 1 for fluorescence; blunt
pKd: −log10 of the molar value.
value kind: pKd

(Q) What measured pKd goes with ds40 (dsDNA) DNA 1: TTAGTTGTTCGTAGTGCTCGTCTGGCTCTGGATTACCCGC DNA 2: GCGGGTAATCCAGAGCCAGACGAGCACTACGAACAACTAA ?
(A) > 7.00
